Origin of values: patent US20080050759A1

- Test system: S30 extracts from S. aureus 133
- testName: Gram-positive in vitro coupled transcription/translation (T/T) assay, S. aureus S30 extract
- Format: biochemical
- experimentalContext: template pT7-FF with T7 RNA polymerase; read-out: IC50
Can you tell me IC50 for the items I'm about to list?
Express it in µM; write the number only.

## Task For the compound shown here, CC[C@H]1OC(=O)[C@H](C)[C@@H](O[C@H]2C[C@@](C)(OC)[C@@H](O)[C@H](C)O2)[C@H](C)[C@@H](O[C@@H]2O[C@H](C)C[C@H](N(C)C)[C@H]2O)[C@](C)(O)C[C@@H](C)C(=O)[C@H](C)[C@@H](O)[C@]1(C)O [Erythromycin] , give the reported IC50.
## Result 0.2

## Task And CC(=O)NC[C@H]1CN(c2ccc(N3CCOCC3)c(F)c2)C(=O)O1 [Linezolid] ?
## Result 4.1

---

- Tested on: S30 extracts from S. pneumoniae 1707/4
- testName: Gram-positive in vitro coupled transcription/translation (T/T) assay, S. pneumoniae S30 extract
- Type: biochemical
- experimentalContext: template pT7-FF with T7 RNA polymerase; read-out: IC50
Can you tell me IC50 for the items I'm about to list?

## Task For the molecule shown here, CN[C@H](CC(C)C)C(=O)N[C@H]1C(=O)N[C@@H](CC(N)=O)C(=O)N[C@H]2C(=O)N[C@H]3C(=O)N[C@H](C(=O)N[C@H](C(=O)O)c4cc(O)cc(O)c4-c4cc3ccc4O)[C@H](O)c3ccc(c(Cl)c3)Oc3cc2cc(c3O[C@@H]2O[C@H](CO)[C@@H](O)[C@H](O)[C@H]2O[C@H]2C[C@](C)(N)[C@H](O)[C@H](C)O2)Oc2ccc(cc2Cl)[C@H]1O , give the reported IC50.
## Result > 34 µM

## Task And CC1(C)S[C@@H]2[C@H](NC(=O)[C@H](N)c3ccccc3)C(=O)N2[C@H]1C(=O)O ?
## Result > 285 µM

## Task And CC(=O)NC[C@H]1CN(c2ccc(N3CCOCC3)c(F)c2)C(=O)O1 ?
## Result 5.8 µM

## Task And [H]/N=C(/N)N[C@H]1[C@H](O)[C@@H](O)[C@H](O[C@@H]2O[C@@H](C)[C@](O)(C=O)[C@H]2O[C@@H]2O[C@@H](CO)[C@H](O)[C@@H](O)[C@@H]2NC)[C@@H](N/C(N)=N\[H])[C@@H]1O ?
## Result 0.01 µM

---

Can you tell me IC50 for the items I'm about to list?
- Tested on: S30 extracts from E. faecalis 27263
- testName: Gram-positive in vitro coupled transcription/translation (T/T) assay, E. faecalis S30 extract
- Assay type: biochemical
- experimentalContext: template pXyl-FF; value in square brackets
Express it in µg/mL; write the number only.

## Task For the compound shown here, [H]/N=C(/N)N[C@H]1[C@H](O)[C@@H](O)[C@H](O[C@@H]2O[C@@H](C)[C@](O)(C=O)[C@H]2O[C@@H]2O[C@@H](CO)[C@H](O)[C@@H](O)[C@@H]2NC)[C@@H](N/C(N)=N\[H])[C@@H]1O , give the reported IC50.
## Result 0.7

## Task And CC[C@H]1OC(=O)[C@H](C)[C@@H](O[C@H]2C[C@@](C)(OC)[C@@H](O)[C@H](C)O2)[C@H](C)[C@@H](O[C@@H]2O[C@H](C)C[C@H](N(C)C)[C@H]2O)[C@](C)(O)C[C@@H](C)C(=O)[C@H](C)[C@@H](O)[C@]1(C)O ?
## Result 0.15

---

- System: S30 extracts from S. aureus 133
- testName: Gram-positive in vitro coupled transcription/translation (T/T) assay, S. aureus S30 extract
- Type: biochemical
- experimentalContext: template pXyl-FF; 50% inhibition of in vitro translation of luciferase; read-out: IC50
measure: pIC50
In textbook form, pIC50 equals minus log to base ten of the concentration in mol/L.

## Task For the molecule shown here, [H]/N=C(/N)N[C@H]1[C@H](O)[C@@H](O)[C@H](O[C@@H]2O[C@@H](C)[C@](O)(C=O)[C@H]2O[C@@H]2O[C@@H](CO)[C@H](O)[C@@H](O)[C@@H]2NC)[C@@H](N/C(N)=N\[H])[C@@H]1O [Streptomycin] , give the reported pIC50.
## Result 7.30

## Task And CN(C)[C@@H]1C(=O)C(C(N)=O)=C(O)[C@@]2(O)C(=O)C3=C(O)c4c(O)cccc4[C@@](C)(O)[C@H]3C[C@@H]12 [Tetracyclin] ?
## Result 6.05

---

Can you tell me IC50 for the items I'm about to list?
- Tested on: S30 extracts from S. pneumoniae 1707/4
- testName: Gram-positive in vitro coupled transcription/translation (T/T) assay, S. pneumoniae S30 extract
- Format: biochemical
- experimentalContext: template pT7-FF with T7 RNA polymerase; read-out: IC50
Express it in nM; write the number only.

## Task For the compound shown here, O=C(N[C@H](CO)[C@H](O)c1ccc([N+](=O)[O-])cc1)C(Cl)Cl , give the reported IC50.
## Result 11800

## Task And CC[C@H]1OC(=O)[C@H](C)[C@@H](O[C@H]2C[C@@](C)(OC)[C@@H](O)[C@H](C)O2)[C@H](C)[C@@H](O[C@@H]2O[C@H](C)C[C@H](N(C)C)[C@H]2O)[C@](C)(O)C[C@@H](C)C(=O)[C@H](C)[C@@H](O)[C@]1(C)O ?
## Result 50

## Task And CN(C)[C@@H]1C(=O)C(C(N)=O)=C(O)[C@@]2(O)C(=O)C3=C(O)c4c(O)cccc4[C@@](C)(O)[C@H]3C[C@@H]12 ?
## Result 450

---

- Tested on: S. aureus 133
- testName: Minimum inhibitory concentration, micro broth dilution
- Type: cell-based
- experimentalContext: Staphylococcus aureus, 133; BHI medium, 24 h, 37° C.; read-out: MIC
Can you tell me MIC for the items I'm about to list?
Express it in µg/mL; write the number only.

## Task For the compound shown here, CC(=O)NC[C@H]1CN(c2ccc(N3CCOCC3)c(F)c2)C(=O)O1 , give the reported MIC.
## Result 2

## Task And O=C(N[C@H](CO)[C@H](O)c1ccc([N+](=O)[O-])cc1)C(Cl)Cl ?
## Result 4

## Task And CC1(C)S[C@@H]2[C@H](NC(=O)[C@H](N)c3ccccc3)C(=O)N2[C@H]1C(=O)O ?
## Result 0.4

## Task And [H]/N=C(/N)N[C@H]1[C@H](O)[C@@H](O)[C@H](O[C@@H]2O[C@@H](C)[C@](O)(C=O)[C@H]2O[C@@H]2O[C@@H](CO)[C@H](O)[C@@H](O)[C@@H]2NC)[C@@H](N/C(N)=N\[H])[C@@H]1O ?
## Result 6.25

## Task And COc1c(N2C[C@@H]3CCCN[C@@H]3C2)c(F)cc2c(=O)c(C(=O)O)cn(C3CC3)c12 ?
## Result 0.06

## Task And CC[C@H]1OC(=O)[C@H](C)[C@@H](O[C@H]2C[C@@](C)(OC)[C@@H](O)[C@H](C)O2)[C@H](C)[C@@H](O[C@@H]2O[C@H](C)C[C@H](N(C)C)[C@H]2O)[C@](C)(O)C[C@@H](C)C(=O)[C@H](C)[C@@H](O)[C@]1(C)O ?
## Result 0.1

---

- Tested on: S30 extracts from E. faecalis 27263
- testName: Gram-positive in vitro coupled transcription/translation (T/T) assay, E. faecalis S30 extract
- Assay type: biochemical
- experimentalContext: template pT7-FF with T7 RNA polymerase; read-out: IC50
pIC50: −log10 of the molar value.
Outcome label depends on pIC50 relative to 6: at/above gives Y, below gives N.

## Task Hello, I need to know if CC[C@H]1OC(=O)[C@H](C)[C@@H](O[C@H]2C[C@@](C)(OC)[C@@H](O)[C@H](C)O2)[C@H](C)[C@@H](O[C@@H]2O[C@H](C)C[C@H](N(C)C)[C@H]2O)[C@](C)(O)C[C@@H](C)C(=O)[C@H](C)[C@@H](O)[C@]1(C)O has measured pIC50 not below 6. Thanks!
## Result Y

## Task And CN(C)[C@@H]1C(=O)C(C(N)=O)=C(O)[C@@]2(O)C(=O)C3=C(O)c4c(O)cccc4[C@@](C)(O)[C@H]3C[C@@H]12 ?
## Result N

## Task And CN[C@H](CC(C)C)C(=O)N[C@H]1C(=O)N[C@@H](CC(N)=O)C(=O)N[C@H]2C(=O)N[C@H]3C(=O)N[C@H](C(=O)N[C@H](C(=O)O)c4cc(O)cc(O)c4-c4cc3ccc4O)[C@H](O)c3ccc(c(Cl)c3)Oc3cc2cc(c3O[C@@H]2O[C@H](CO)[C@@H](O)[C@H](O)[C@H]2O[C@H]2C[C@](C)(N)[C@H](O)[C@H](C)O2)Oc2ccc(cc2Cl)[C@H]1O ?
## Result N

## Task And [H]/N=C(/N)N[C@H]1[C@H](O)[C@@H](O)[C@H](O[C@@H]2O[C@@H](C)[C@](O)(C=O)[C@H]2O[C@@H]2O[C@@H](CO)[C@H](O)[C@@H](O)[C@@H]2NC)[C@@H](N/C(N)=N\[H])[C@@H]1O ?
## Result Y

## Task And O=C(N[C@H](CO)[C@H](O)c1ccc([N+](=O)[O-])cc1)C(Cl)Cl ?
## Result N

## Task And CC(=O)NC[C@H]1CN(c2ccc(N3CCOCC3)c(F)c2)C(=O)O1 ?
## Result N

## Task And CC1(C)S[C@@H]2[C@H](NC(=O)[C@H](N)c3ccccc3)C(=O)N2[C@H]1C(=O)O ?
## Result N
